Experiment: Primary fluorescence-based thiol-reactive (MSTI) qHTS assay for identification of artifact compounds. (AID 1845221); also: nearly all actives have a fitted effect of over 65% in size
Conditions: MSTI thiol-reactivity probe, 1 h; series mostly up to 53.8 µM
Records with an inconclusive call do not appear. Activity calls are given as the source filed them. Calls follow the shape of the dose curve; as a rule, active = well fitted inhibition curve with a large enough effect; inconclusive = small, poorly fitted or top-dose-only effect; inactive = no such curve, though single readings can be large or run the other way.
Please reply with one of these outcomes: t (active), f (inactive)

Input: Assay outcome for O=C(/C=C/c1ccc(O)cc1)OC[C@H]1O[C@@H](OC(=O)/C=C/c2ccccc2)[C@H](O)[C@@H](O)[C@@H]1O : what was it?
Output: t

Input: Check the results log: what was the call for CC1(O)CCC2C(C(=O)O)=COC(OC3OC(CO)C(O)C(O)C3OC(=O)/C=C/c3ccc(O)cc3)C21 (configuration not stated) ?
Output: t

Input: Field: outcome | Entry: C[C@@H]1O[C@@H](OC[C@H]2O[C@@H](OCC3CCC4CC3C4(C)C)[C@H](O)[C@@H](O)[C@@H]2O)[C@H](O)[C@H](O)[C@H]1O (some centres not stated)
Output: t

Input: // outcome(item) with item = COC(=O)C1=CO[C@@H](O[C@@H]2O[C@H](CO)[C@@H](O)[C@H](O)[C@H]2O)[C@@H]2[C@@H](C)[C@@H](O)C[C@H]12
Output: f

Input: GET /call?item= CC(C)(O)c1ccc2c(c1)C(O)CC1C(C)(C(=O)O)CCCC21C (configuration not stated) returns the recorded outcome of this test.
Output: f

Input: Give the logged outcome of this assay for the following compound: Cc1cc(C)cc(NC(=O)Cc2ccc(OC(C)(C)C(=O)O)cc2)c1
Output: f

Input: Each compound tested received a call. Report the one for CCC(C)/C=C(C)/C=C/C1=CC2=C(Cl)C(=O)C(C)(OC(C)=O)C(=O)C2=CN1CCCC(=O)O (configuration not stated) .
Output: t
